Measurement Target: Lysosomal acid glucosylceramidase (Homo sapiens) (UniProt P04062)
Sequence (P04062 whole entry, looked up): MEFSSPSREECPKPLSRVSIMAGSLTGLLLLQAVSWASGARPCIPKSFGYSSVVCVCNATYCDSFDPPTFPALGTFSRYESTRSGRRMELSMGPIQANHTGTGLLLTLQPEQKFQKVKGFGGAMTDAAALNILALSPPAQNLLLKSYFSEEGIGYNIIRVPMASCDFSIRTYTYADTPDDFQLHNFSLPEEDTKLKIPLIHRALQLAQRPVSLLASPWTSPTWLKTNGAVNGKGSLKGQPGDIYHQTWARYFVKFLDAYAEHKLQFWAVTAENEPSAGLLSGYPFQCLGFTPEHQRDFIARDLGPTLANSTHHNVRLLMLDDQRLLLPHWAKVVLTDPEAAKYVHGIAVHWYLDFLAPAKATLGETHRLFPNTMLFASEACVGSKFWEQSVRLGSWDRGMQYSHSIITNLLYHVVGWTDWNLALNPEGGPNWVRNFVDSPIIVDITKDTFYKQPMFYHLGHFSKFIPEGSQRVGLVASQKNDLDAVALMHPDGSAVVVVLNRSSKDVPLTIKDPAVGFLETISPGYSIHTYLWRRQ
Experimental Details: qHTS Assay for Inhibitors and Activators of N370S glucocerebrosidase as a Potential Chaperone Treatment of Gaucher Disease: Purified Non-mutant Glucocerebrosidase
Test Settings: purified wildtype GC, 4MU-beta-glucoside fluorescence, 40 min; series mostly up to 76.9 µM
Inconclusive results are not listed. Calls of active or inactive are those of the source. The call rests on the fitted dose curve; in most records, active means well fitted inhibition curve with a large enough effect; inconclusive means small, poorly fitted or top-dose-only effect, or effect the other way; inactive means flat fitted curve, though single readings scatter.
Tick one outcome: yes for active, no for inactive

# example entries with known answers
{"Compound": "O=S(=O)(Cc1ccccc1)N1CCN(c2nc(-c3cccs3)nc3ccccc23)CC1", "Label": "yes"}
{"Compound": "O=S(=O)(c1ccc(Cl)cc1)N1CCN(c2nc(-c3ccc(F)cc3)nc3cc(Cl)ccc23)CC1", "Label": "no"}
{"Compound": "c1csc(-c2nc(NCC3CCCO3)c3ccccc3n2)c1 (stereo not given)", "Label": "yes"}
{"Compound": "O=S(=O)(c1ccccc1C(F)(F)F)N1CCN(c2nc(-c3cccs3)nc3ccccc23)CC1", "Label": "yes"}

Turning to the following compound.
Query block: What classification did `COc1ccc(-c2nc(N3CCN(S(=O)(=O)c4ccc(F)cc4)CC3)c3ccccc3n2)cc1` end up with in this test?
Result block: no
